# target_system: T1, human histidine-rich glycoprotein (HRG), purified from human plasma (human, UniProt P04196 19-525)
# T1 construct: also called human purified HRG; human purified HRG protein
# T1 sequence: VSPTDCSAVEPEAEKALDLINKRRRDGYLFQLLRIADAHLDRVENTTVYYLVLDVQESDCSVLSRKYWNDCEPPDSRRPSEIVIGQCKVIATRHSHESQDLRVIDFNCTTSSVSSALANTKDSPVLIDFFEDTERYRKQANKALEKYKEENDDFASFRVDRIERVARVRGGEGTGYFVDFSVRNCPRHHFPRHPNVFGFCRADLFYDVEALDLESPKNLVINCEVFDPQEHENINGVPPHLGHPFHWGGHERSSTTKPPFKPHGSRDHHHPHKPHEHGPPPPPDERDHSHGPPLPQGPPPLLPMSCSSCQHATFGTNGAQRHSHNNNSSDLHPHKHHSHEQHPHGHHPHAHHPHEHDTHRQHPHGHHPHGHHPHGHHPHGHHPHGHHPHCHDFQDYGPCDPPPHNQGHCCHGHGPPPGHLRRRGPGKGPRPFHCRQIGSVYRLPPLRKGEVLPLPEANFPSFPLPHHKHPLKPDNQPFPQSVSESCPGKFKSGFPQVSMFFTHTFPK
# method: sandwich ELISA, HRG captured by solid phase 14-6F
observation_type: absorbance at 450 nm (OD450)

- binder: "anti-HRG monoclonal antibody 50-6C-2A (antibody, V domains shown, Mouse hybridoma monoclonal) VH: EVQLQESGPGLVKPSQSLSLTCTVTGYSITSDYAWNWIRQFPGNKLEWMGYISYSGSTNYNPSLKSRISITRDTSKNQFFLQLNSVTTEDTATYYCASASYRYAWFAYWGQGTLVTVST VL: DIQMTQTTSSLSASLGDRVTISCRASQDISNYLNWYQQKPDGTVKLLIYYTSRLHSGVPSRFSGSGSGTDYSLTISNLEQEDIGTYFCQQGNTLPTFGGGTKLEIK"
  absorbance at 450 nm (OD450): "2 to 3 od"
- binder: "anti-HRG monoclonal antibody 6-12A-10B-9G (antibody, V domains shown, Mouse hybridoma monoclonal; biotin-labeled as detection antibody and for bead immobilisation) VH: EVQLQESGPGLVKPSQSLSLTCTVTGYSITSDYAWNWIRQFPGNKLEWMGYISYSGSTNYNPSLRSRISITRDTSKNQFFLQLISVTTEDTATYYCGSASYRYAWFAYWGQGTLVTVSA VL: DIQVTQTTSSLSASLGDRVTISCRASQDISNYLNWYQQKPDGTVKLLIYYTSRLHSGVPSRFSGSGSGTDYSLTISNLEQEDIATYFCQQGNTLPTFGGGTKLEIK"
  absorbance at 450 nm (OD450): "≥ 3 od"
- binder: "anti-HRG monoclonal antibody 69-1A (antibody, V domains shown, Mouse hybridoma monoclonal; also called clone No. 69-1A) VH: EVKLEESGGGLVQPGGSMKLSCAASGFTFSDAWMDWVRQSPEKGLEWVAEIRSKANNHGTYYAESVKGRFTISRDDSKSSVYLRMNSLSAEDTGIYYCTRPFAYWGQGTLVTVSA VL: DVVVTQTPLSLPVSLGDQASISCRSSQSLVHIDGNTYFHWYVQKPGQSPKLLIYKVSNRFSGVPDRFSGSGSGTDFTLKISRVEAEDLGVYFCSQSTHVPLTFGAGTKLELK"
  absorbance at 450 nm (OD450): "1 to 2 od"

Moving on to the next binder.
In: What measured absorbance at 450 nm (OD450) goes with anti-HRG monoclonal antibody 65-3A (antibody, V domains shown, Mouse hybridoma monoclonal) VH: QVILKESGPGILQPSQTLSLTCSFSGFSLSTSGVGVSWIRQPSGKGLEWLAHIYWDDDKHYNPSLKSRLTISKDTSRNQVFLRITSVDTADTATYYCALGTVGGPWFPYWGQGTLVTVSA VL: DVQMNQSHKFMSTSVGDRVSITCKASQDVSTAVAWYQQKPGQSPKILIYWASIRHTGVPDRFTGSGSGTDYTLTISSVQAEDLTLYYCQQHYSTPWTFGGGTKLEIK ?
Out: 1 to 2 od
